The reported numbers originate from patent US20260315436A1.

tested on: shy1Δ knockout mutants; assay: Yeast drug repurposing screen, shy1Δ knockout mutants (haploid/diploid not separated); assay type: cell-based; conditions: FIG. 12, inactive statins; test not named
value_kind: activity of statins

CC[C@H](C)C(=O)O[C@H]1CCC=C2C=C[C@H](C)[C@H](CC[C@@H]3C[C@@H](O)CC(=O)O3)[C@H]21: inactive
CCC(C)(C)C(=O)O[C@H]1C[C@@H](C)C=C2C=C[C@H](C)[C@H](CC[C@@H]3C[C@@H](O)CC(=O)O3)[C@H]21: inactive
CC[C@H](C)C(=O)O[C@H]1C[C@H](O)C=C2C=C[C@H](C)[C@H](CC[C@@H](O)C[C@@H](O)CC(=O)O)[C@H]21: inactive
CC[C@H](C)C(=O)O[C@H]1C[C@@H](C)C=C2C=C[C@H](C)[C@H](CC[C@@H]3C[C@@H](O)CC(=O)O3)[C@H]21: inactive
